Data credit: ChEMBL document CHEMBL3507680

assay: Human HepG2 cell viability assay in 384 well format; format: toxicity, cell-based; design: dose 125 nL, time 70.5 hour; concentration not given beside the values; settings: HepG2 cells, read-out: Inhibition
Measured Attribute: cytotoxicity at 70.5 h (%)
Please respond with the number in % and leave the unit unwritten.

Problem: # query: cytotoxicity at 70.5 h of entry `Cc1nn(C)c(N(C)C)c1CNCc1cccc(CN(C)C(C)C)c1`
Result: -9.1

Problem: # query: cytotoxicity at 70.5 h of entry `CC(C)CSc1ccc(-n2cccn2)nn1`
Result: 27.6

Problem: # query: cytotoxicity at 70.5 h of entry CC(C)(C)c1nc(C(C)(C)NC(=O)C2CC(=O)N(CC3CC3)C2)no1 (configuration not stated)
Result: -1.01

Problem: # query: cytotoxicity at 70.5 h of entry Cc1ccccc1SCC(=O)NC1CCC(O)CC1 (configuration not stated)
Result: 7.04

Problem: # query: cytotoxicity at 70.5 h of entry `Cn1cnc2c(-c3cccnc3)nc(C3CCN(S(C)(=O)=O)CC3)cc21`
Result: -8.84

Problem: # query: cytotoxicity at 70.5 h of entry `C[C@@H]1C[C@H](C(F)(F)F)n2nc(C3CCN(S(=O)(=O)N(C)C)CC3)cc2N1`
Result: -5.83

Problem: # query: cytotoxicity at 70.5 h of entry `CCS(=O)(=O)N(C)C1CCN(C(=O)c2ccc(Cl)cc2)CC1`
Result: -15.5

Problem: # query: cytotoxicity at 70.5 h of entry O=C(NCC1(O)CCOc2ccccc21)Nc1ccccc1 (configuration not stated)
Result: 1.09

Problem: # query: cytotoxicity at 70.5 h of entry CCc1nc(C2CCCN2C(=O)c2nccnc2N)no1 (configuration not stated)
Result: -18.5

Problem: # query: cytotoxicity at 70.5 h of entry CCc1n[nH]c(C2CN(C(=O)c3csnn3)CCO2)n1 (configuration not stated)
Result: -18.6

Problem: # query: cytotoxicity at 70.5 h of entry `Fc1cccc(CN2CCC(c3noc(-c4cnccn4)n3)CC2)c1F`
Result: -0.815

Problem: # query: cytotoxicity at 70.5 h of entry `Cc1ccc(C(=O)Nc2ccc(N(C)C)nc2)n1C`
Result: 3.75

----------
Please provide measured cytotoxicity at 70.5 h for the entries that follow.
assay: Human HepG2 cell viability assay in 384 well format; type: toxicity, cell-based; parameters: dose 125 nL, time 70.5 hour; concentration not given beside the values; conditions: HepG2 cells, read-out: Inhibition
Please respond with the number in % and leave the unit unwritten.

Problem: # query: cytotoxicity at 70.5 h of entry `CCc1[nH]c2c(CNc3nc(C)cc(NC)n3)cc(C)cc2c1C`
Result: 99.9

Problem: # query: cytotoxicity at 70.5 h of entry `CC(C)C(=O)N(C)Cc1nnc2n1CCCCC2`
Result: 25

Problem: # query: cytotoxicity at 70.5 h of entry C=C(C)CN1CCCC(CNS(C)(=O)=O)C1 (stereo unspecified)
Result: -4.35

Problem: # query: cytotoxicity at 70.5 h of entry Cc1cnn(CC2CCCN2c2ncnc3c2CCC3)c1 (stereo unspecified)
Result: 13.3

Problem: # query: cytotoxicity at 70.5 h of entry Cc1noc(C)c1CNCC1CCN(CC(O)c2ccccc2)CC1 (stereo unspecified)
Result: 2.35

Problem: # query: cytotoxicity at 70.5 h of entry Cc1nc(CNC2CC(=O)N(CCc3cccc(Cl)c3)C2)c[nH]1 (stereo unspecified)
Result: -5.42

Problem: # query: cytotoxicity at 70.5 h of entry `Cc1ccccc1CN1CC[C@H]2C[C@H](C(=O)N(C)C)O[C@H]2C1`
Result: -12.7

Problem: # query: cytotoxicity at 70.5 h of entry `Cc1cc(Cl)c(C)c(S(=O)(=O)N2CCN(Cc3ccccn3)CC2)c1Cl`
Result: 40.2

Problem: # query: cytotoxicity at 70.5 h of entry Cc1occc1C(=O)NCc1ccc(N2CCCC(C(N)=O)C2)cc1 (stereo unspecified)
Result: -6.48

Problem: # query: cytotoxicity at 70.5 h of entry COc1cccc(COCC(=O)NC(C(N)=O)c2ccccc2)c1 (stereo unspecified)
Result: 3.41

Problem: # query: cytotoxicity at 70.5 h of entry `Cc1cnc(CN2C[C@H]3C[C@H](Oc4ccccc4)C[C@H]3C2)cn1`
Result: 34.2

----------
assay: Human HepG2 cell viability assay in 384 well format; assay type: toxicity, cell-based; parameters: dose 125 nL, time 70.5 hour; concentration not given beside the values; details: HepG2 cells, read-out: Inhibition
Measured Attribute: cytotoxicity at 70.5 h (%)
Please respond with the number in % and leave the unit unwritten.

Problem: # query: cytotoxicity at 70.5 h of entry `CC(C)COCCC(=O)Nc1c(-c2ccc(F)cc2)ncn1C`
Result: -2.98

Problem: # query: cytotoxicity at 70.5 h of entry Cc1cc(C(=O)N2CCN(Cc3ccco3)C(CCO)C2)cc(=O)[nH]1 (centres undefined)
Result: 21.1

Problem: # query: cytotoxicity at 70.5 h of entry Cc1nc(C2CCCN(C(=O)c3cnn(C4CCCCC4)c3)C2)no1 (centres undefined)
Result: -1.22

Problem: # query: cytotoxicity at 70.5 h of entry `Cc1nnsc1C(=O)N1CC(c2nc3ccccc3[nH]2)C1`
Result: -14.1

Problem: # query: cytotoxicity at 70.5 h of entry `CC(C)CNC(=O)c1ccc(NC(=O)NC(C)(C)CO)cc1Cl`
Result: -2.58

Problem: # query: cytotoxicity at 70.5 h of entry `CCCc1nnc(NCCc2noc(C3CCCC3)n2)o1`
Result: 9.03

Problem: # query: cytotoxicity at 70.5 h of entry `CN(Cc1cncnc1)[C@@H]1CN(Cc2ccco2)C[C@@H]2CCCO[C@@H]21`
Result: -14.6

Problem: # query: cytotoxicity at 70.5 h of entry CCCc1nc(N2CCCC3(CCNC3)C2)c2cnn(C)c2n1 (centres undefined)
Result: -7.26

Problem: # query: cytotoxicity at 70.5 h of entry CCN1CC(COC(=O)c2cccc(Br)c2)CC1=O (centres undefined)
Result: -7.36

Problem: # query: cytotoxicity at 70.5 h of entry `CC(C)OCCN1CCC(Nc2ncccn2)CC1`
Result: 0.193

Problem: # query: cytotoxicity at 70.5 h of entry COc1ccc2c(c1)OCC(CNC(=O)c1cnc(NC(C)C)nc1)C2 (centres undefined)
Result: 12.5

Problem: # query: cytotoxicity at 70.5 h of entry `CN(CCCc1ccccc1)C(=O)CCc1nc(-c2nnc[nH]2)no1`
Result: -0.426

Problem: # query: cytotoxicity at 70.5 h of entry CCN(CC)C(=O)CNC(=O)N1CCC(c2ccc(OC)cc2)C1 (centres undefined)
Result: 12.9

Problem: # query: cytotoxicity at 70.5 h of entry `O=C(O)C[C@@H]1CCN(C(=O)C2CCCC2)C[C@@H]1CCN1CCCCC1`
Result: -1.16

Problem: # query: cytotoxicity at 70.5 h of entry COc1ccc(-c2nc(CNC3CCc4nc(C)nn4C3)no2)cc1 (centres undefined)
Result: -3.37

Problem: # query: cytotoxicity at 70.5 h of entry `COc1cc(CNCCn2ccnc2)cc2c1OCO2`
Result: 1.27

Problem: # query: cytotoxicity at 70.5 h of entry `CCS(=O)(=O)Nc1ccc2oc(C)c(C(C)=O)c2c1`
Result: 28.3

Problem: # query: cytotoxicity at 70.5 h of entry `NC(=O)c1cccc(CCNCc2cnc(C3CCC3)s2)c1`
Result: 7.84

Problem: # query: cytotoxicity at 70.5 h of entry `CS(=O)(=O)NCc1ncn2c1CN(CCN1CCCC1)CCC2`
Result: -6.23

Problem: # query: cytotoxicity at 70.5 h of entry Cn1nc(C2CCCN(Cc3ccc(F)cc3F)C2)c2nccnc21 (centres undefined)
Result: 0.45

Problem: # query: cytotoxicity at 70.5 h of entry Cc1c(C(=O)N2CCC(O)(CN(C)C)C2)c2ccccc2n1C (centres undefined)
Result: 11

Problem: # query: cytotoxicity at 70.5 h of entry COCCN1CCCC(c2nccnc2-c2cccc(Cl)c2)C1 (centres undefined)
Result: 21

Problem: # query: cytotoxicity at 70.5 h of entry CCC(=O)c1ccc(OCC(=O)N2CCNCC2C(=O)NC2CC2)cc1 (centres undefined)
Result: -9.05

Problem: # query: cytotoxicity at 70.5 h of entry `N#Cc1ccc(OC2CCN(C(=O)c3ccccc3Cl)CC2)nc1`
Result: -5.83

----------
Please provide measured cytotoxicity at 70.5 h for the entries that follow.
experiment: Human HepG2 cell viability assay in 384 well format; format: toxicity, cell-based; set-up: dose 125 nL, time 70.5 hour; concentration not given beside the values; settings: HepG2 cells, read-out: Inhibition
Please respond with the number in % and leave the unit unwritten.

Problem: # query: cytotoxicity at 70.5 h of entry CN(CCNS(C)(=O)=O)CC(c1cccs1)N1CCOCC1 (stereo unspecified)
Result: -8.66

Problem: # query: cytotoxicity at 70.5 h of entry `O=C(CN1CCC(c2cc(=O)n3c(n2)CCCCC3)CC1)N1CCCC1`
Result: 1.49

Problem: # query: cytotoxicity at 70.5 h of entry COc1ccc(CN(C)CC2(O)CCN(C(=O)c3cccn3C)C2)cc1 (stereo unspecified)
Result: 36.1

Problem: # query: cytotoxicity at 70.5 h of entry CCC(CC)c1cc(C(=O)N2CCN(C(C)C(N)=O)CC2)on1 (stereo unspecified)
Result: -7.02

Problem: # query: cytotoxicity at 70.5 h of entry `COCCN1CCN(Cc2cnc(C(C)C)nc2)CC1`
Result: 16.4

Problem: # query: cytotoxicity at 70.5 h of entry CC1N(CC2CC2)C(=O)COC12CCN(C(=O)c1cscn1)CC2 (stereo unspecified)
Result: -5.04
